test: Inhibition of rapamycin induced autophagy in human MCF7 cells expressing eGFP-LC3; format: functional, cell-based
pIC50: −log10 of the molar value.
assay.endpoint: pIC50

1: N#Cc1ccc(Oc2nc(Cl)cc(Nc3cc[nH]n3)n2)cc1
2: Cc1cc(Nc2cc(Cl)nc(Oc3ccc([N+](=O)[O-])cc3)n2)n[nH]1
3: Cc1cc(Nc2cc(N3CCOCC3)nc(Oc3ccc([N+](=O)[O-])cc3)n2)n[nH]1
## Input Please arrange the 3 compounds above from largest to smallest pIC50 value. A complete answer lists every label in the requested sequence.
## Output 2, 1, 3

P: Cc1cc(Nc2cc(C)[nH]n2)nc(Oc2ccc([N+](=O)[O-])cc2)n1
Q: O=[N+]([O-])c1ccc(Oc2nc(Cl)cc(Nc3cc(C4CC4)[nH]n3)n2)cc1
## Input Kindly identify which of P and Q has the larger recorded pIC50 value. Refer to your chosen entry by its label in the reply.
## Output P
(P: 7.40, Q: 7.00)

----------
assay: Inhibition of rapamycin induced autophagy in human MCF7 cells expressing eGFP-LC3; type: functional, cell-based
pIC50: −log10 of the molar value.
assay.endpoint: pIC50

For orientation, consider the following solved cases.
- entry.smiles: "Clc1cc(Nc2cc[nH]n2)nc(OCc2ccncc2)n1"
  measured.result: 6.55
- entry.smiles: "Cc1cc(Nc2cc(N(C)C)nc(Oc3ccc([N+](=O)[O-])cc3)n2)n[nH]1"
  measured.result: 6.55
- entry.smiles: "Cc1cc(Nc2cc(C(F)(F)F)nc(Nc3ccc([N+](=O)[O-])cc3)n2)n[nH]1"
  measured.result: 6.36
- entry.smiles: "NS(=O)(=O)c1ccc(Oc2nc(Cl)cc(Nc3cc[nH]n3)n2)cc1"
  measured.result: 6.38

I: Cc1cc(Nc2cc(Cl)nc(OCc3ccc([N+](=O)[O-])cc3)n2)n[nH]1
II: Cc1cc(Nc2cc(C(F)(F)F)nc(Oc3ccc([N+](=O)[O-])cc3)n2)n[nH]1
III: CC(C)(C)c1cc(Nc2cc(Cl)nc(Oc3ccc([N+](=O)[O-])cc3)n2)n[nH]1
IV: Cc1cc(Nc2cc(Cl)nc(Oc3ccc([N+](=O)[O-])cc3)n2)no1
## Input // ascending sort on recorded pIC50 A complete answer lists every label in the requested sequence.
## Output III, I, IV, II
(III: 5.70, I: 6.33, IV: 6.92, II: 7.15)

----------
target: Phosphatidylinositol 3-kinase catalytic subunit type 3 (Homo sapiens); assay: Inhibition of VPS34 (unknown origin)
Sequence (Q8NEB9 whole entry): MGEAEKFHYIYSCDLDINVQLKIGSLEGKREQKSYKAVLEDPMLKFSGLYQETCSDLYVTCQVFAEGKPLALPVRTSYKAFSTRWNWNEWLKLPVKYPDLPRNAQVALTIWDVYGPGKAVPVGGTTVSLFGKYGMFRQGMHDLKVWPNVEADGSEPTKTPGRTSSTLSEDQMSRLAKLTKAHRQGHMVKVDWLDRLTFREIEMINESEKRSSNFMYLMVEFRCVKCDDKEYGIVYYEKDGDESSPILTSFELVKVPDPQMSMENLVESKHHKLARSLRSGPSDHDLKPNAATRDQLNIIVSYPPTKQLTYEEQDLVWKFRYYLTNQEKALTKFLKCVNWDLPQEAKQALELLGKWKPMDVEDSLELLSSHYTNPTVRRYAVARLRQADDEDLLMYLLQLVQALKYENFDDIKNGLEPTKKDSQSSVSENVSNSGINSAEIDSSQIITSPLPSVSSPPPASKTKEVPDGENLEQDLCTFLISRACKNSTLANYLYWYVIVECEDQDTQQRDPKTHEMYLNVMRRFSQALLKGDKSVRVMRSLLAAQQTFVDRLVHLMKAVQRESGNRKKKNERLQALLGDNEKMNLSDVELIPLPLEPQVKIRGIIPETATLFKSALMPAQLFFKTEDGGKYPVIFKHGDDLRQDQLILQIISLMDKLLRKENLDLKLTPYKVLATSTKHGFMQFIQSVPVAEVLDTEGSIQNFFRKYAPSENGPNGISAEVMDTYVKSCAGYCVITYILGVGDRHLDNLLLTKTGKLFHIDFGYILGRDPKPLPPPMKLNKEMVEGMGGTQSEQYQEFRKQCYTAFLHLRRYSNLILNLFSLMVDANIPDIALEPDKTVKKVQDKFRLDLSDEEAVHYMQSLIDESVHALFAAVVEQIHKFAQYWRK
assay.endpoint: IC50 (µM)

For orientation, consider the following solved cases.
- molecule: "O=[N+]([O-])c1ccc(Oc2nc(Cl)cc(Nc3cc(C4CC4)[nH]n3)n2)cc1"
  IC50 [µM]: 0.036
- molecule: "Cc1cc(Nc2cc(C(F)(F)F)nc(Nc3ccc([N+](=O)[O-])cc3)n2)n[nH]1"
  IC50 [µM]: 0.31
- molecule: "COC[C@H]1OC(=O)c2coc3c2[C@@]1(C)C1=CC[C@]2(C)C(=O)CC[C@H]2C1C3=O (stereo partly drawn)"
  IC50 [µM]: 0.054
- molecule: "Clc1cc(Nc2cc[nH]n2)nc(OCc2ccncc2)n1"
  IC50 [µM]: 0.11
- molecule: "COC[C@H]1OC(=O)c2coc3c2[C@@]1(C)C1=C(C3=O)[C@@H]2C[C@@H](O)C(OC(C)=O)[C@@]2(C)C[C@H]1OC(C)=O (stereo partly drawn)"
  IC50 [µM]: 0.153
- molecule: "COC[C@H]1OC(=O)c2coc3c2[C@@]1(C)C1=C(C3=O)[C@@H]2C[C@@H](Br)C(OC(C)=O)[C@@]2(C)C[C@H]1OC(C)=O (stereo partly drawn)"
  IC50 [µM]: 0.077

I: Cc1cc(Nc2cc(C(F)(F)F)nc(Oc3ccc([N+](=O)[O-])cc3)n2)n[nH]1
II: COC[C@H]1OC(=O)C2=CCOC3=C2[C@@]1(C)C1=C(C3=O)[C@@H]2CCC(=O)[C@@]2(C)C[C@H]1OC(C)=O
III: CCCCN/C=C1\C(=O)O[C@H](COC)[C@@]2(C)C1=C(O)C(=O)C1=C2[C@H](OC(C)=O)C[C@]2(C)C(=O)CC[C@@H]12
IV: Cc1cc(Nc2cc(N3CCN(C)CC3)nc(Oc3ccc([N+](=O)[O-])cc3)n2)n[nH]1
V: Cc1cc(Nc2cc(C)[nH]n2)nc(Oc2ccc([N+](=O)[O-])cc2)n1
## Input // ascending sort on recorded IC50 A complete answer lists every label in the requested sequence.
## Output V, III, I, IV, II
